# subject_of_test: Acetylcholinesterase (Homo sapiens) (UniProt P22303)
# Sequence (P22303 whole entry, looked up): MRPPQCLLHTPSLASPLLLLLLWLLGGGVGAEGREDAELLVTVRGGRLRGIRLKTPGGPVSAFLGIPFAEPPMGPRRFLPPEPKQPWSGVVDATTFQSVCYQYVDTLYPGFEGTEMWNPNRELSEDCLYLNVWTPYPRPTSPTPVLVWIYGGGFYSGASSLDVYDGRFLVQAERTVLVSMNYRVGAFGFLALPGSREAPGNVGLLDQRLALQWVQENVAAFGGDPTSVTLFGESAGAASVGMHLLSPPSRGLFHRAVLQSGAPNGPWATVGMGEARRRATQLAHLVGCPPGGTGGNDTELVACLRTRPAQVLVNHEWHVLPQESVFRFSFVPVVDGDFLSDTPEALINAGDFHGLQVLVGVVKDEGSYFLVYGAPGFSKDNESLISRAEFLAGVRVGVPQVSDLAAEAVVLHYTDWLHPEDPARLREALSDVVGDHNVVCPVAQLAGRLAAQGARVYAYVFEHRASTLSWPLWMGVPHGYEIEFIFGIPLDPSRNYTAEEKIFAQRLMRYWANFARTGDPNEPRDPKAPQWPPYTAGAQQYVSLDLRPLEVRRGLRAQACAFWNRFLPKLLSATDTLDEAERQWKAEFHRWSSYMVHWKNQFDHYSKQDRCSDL
# assay_remarks: Acetylcholinesterase (AChE) small molecule antagonists: fluorescence cell-based qHTS assay (AID 1347398); also: nearly all actives have a fitted effect of over 50% in size
# study_conditions: SH-SY5Y cells; AChE activity; series mostly up to 115 µM
Records with an inconclusive call do not appear. Calls of active or inactive are those of the source. Calls follow the shape of the full dose curve.
Tick one outcome: Yes (active), No (inactive)

Some solved entries appear below for comparison.
- molecule: "Nc1ccc(-c2ccccc2)cc1"
  answer_label: "No"
- molecule: "Nc1ccc(Cl)cc1N"
  answer_label: "No"
- molecule: "Clc1nc(Cl)nc(Cl)n1"
  answer_label: "No"
- molecule: "CCC(C)c1ccc(O)cc1 (centres undefined)"
  answer_label: "No"
- molecule: "Cc1c(COC(=O)[C@@H]2[C@H](/C=C(\\Cl)C(F)(F)F)C2(C)C)cccc1-c1ccccc1"
  answer_label: "No"
- molecule: "N#Cc1cc(Br)c(O)c(Br)c1"
  answer_label: "No"

Qu. Hi team, can someone confirm the assay call for C=C(C)[C@H]1Cc2c(ccc3c2O[C@@H]2COc4cc(OC)c(OC)cc4[C@@H]2C3=O)O1 ?
Ans. No

Qu. Write down the call the test reported for this molecule. Item: CCC(C)(c1ccc(O)cc1)c1ccc(O)cc1
Ans. No

###

# assay_remarks: qHTS assay to identify aromatase inhibitors - cell viability counter screen (AID 743084);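 also: cells stimulated with testosterone during compound exposure; nearly all actives have a fitted effect of over 55% in size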
# study_conditions: MCF-7 aro ERE viability, CellTiter-Fluor, 24 h; series mostly up to 70.3 µM
Records with an inconclusive call do not appear. Calls of active or inactive are those of the source. The call rests on the fitted dose curve; in most records, active means well fitted cell-killing curve with a large enough effect in the repeat runs; inconclusive means weak or mixed curves, or effect the other way; inactive means no such curve, though single readings can be large or run the other way.
Hello, when you answer, please use one of the following outcomes: active, inactive

- chemical_string: "CCOc1cc(Oc2ccc(C(F)(F)F)cc2Cl)ccc1[N+](=O)[O-]"
  answer_label: "inactive"
- chemical_string: "c1ccc(P(c2ccccc2)c2ccccc2)cc1"
  answer_label: "inactive"
- chemical_string: "Oc1cc(Cl)c(Cl)cc1Cl"
  answer_label: "inactive"
- chemical_string: "COP(=S)(OC)Oc1ccc([N+](=O)[O-])cc1"
  answer_label: "inactive"

Qu. Test call for this compound, please: O=C(O)CC[N+](=O)[O-]
Ans. inactive

Qu. Query: recorded result category for O=C1C=CC(=O)C=C1 in this test
Ans. inactive

Qu. Would you mind telling me which call this test gave CCCCOCCOP(=O)(OCCOCCCC)OCCOCCCC ?
Ans. inactive

###

# assay_remarks: qHTS RealTime-Glo MT Cell Viability Assay in HepG2 cells - 8 hour (AID 1224873); also: nearly all actives have a fitted effect of over 55% in size
# study_conditions: RealTime-Glo luminescence; series mostly up to 76.8 µM
Results filed as inconclusive are left out. Active and inactive are the calls of the source. Calls follow the shape of the dose curve; as a rule, active = well fitted cell-killing curve with a large enough effect in the repeat runs; inconclusive = weak or mixed curves; inactive = flat fitted curve, though single readings scatter.
measured_metric: outcome

Check out these entries, answers already filled in.
- molecule: "CCCCN(CCCC)N=O"
  measured_metric: "outcome"
  result: "inactive"
- molecule: "CC(C)c1ccc(CO)cc1"
  measured_metric: "outcome"
  result: "inactive"
- molecule: "Nc1ccc(-c2ccc(N)c(N)c2)cc1N"
  measured_metric: "outcome"
  result: "inactive"
- molecule: "C1=Cc2cccc3cccc1c23"
  measured_metric: "outcome"
  result: "inactive"
- molecule: "CC(C)C(=O)OCC(C)(C)C(OC(=O)C(C)C)C(C)C (centres undefined)"
  measured_metric: "outcome"
  result: "inactive"
- molecule: "NNC(=S)NN"
  measured_metric: "outcome"
  result: "inactive"

Query O=P(O)(O)CCCl yields outcome of inactive

Recorded result, Nc1c(Cl)cc([N+](=O)[O-])cc1Cl , outcome: inactive

The molecule listed as CCOc1cc(C=O)ccc1O shows outcome equal to inactive

The recorded outcome for N#CC(Br)Br is inactive

// outcome lookup, molecule = CCN(CC)C(=O)SCc1ccc(Cl)cc1 , result: inactive
